tested on: Fibroblast; assay: Incucyte cell viability with human fibroblast; format: toxicity, cell-based; conditions: 24 h, 10 µM, compound concentration 10 uM, replicate number 1; also: unitless GR value; below 1 slowed growth and below 0 cell loss
Quick rule for you: Growth Rate at 0.9 or higher means 1 (yes), lower means 0 (no).

Please indicate if the recorded Growth Rate for COc1cc2c(cc1CC=C(C)C)C(=O)C[C@@H](c1ccc(O)cc1)O2 [BAVACHININ A] meets or exceeds 0.9.
1 (yes)

Please indicate if the recorded Growth Rate for CCOc1ccc(S(=O)(=O)Nc2ccc(Cl)cc2C#Cc2cnc(C(=O)[O-])cc2OC)c2ncccc12.[K+] meets or exceeds 0.9.
1 (yes)

Please indicate if the recorded Growth Rate for COc1cc(-c2cn(C)c(=O)c3cnccc23)cc(OC)c1CN(C)C meets or exceeds 0.9.
0 (no)

Please indicate if the recorded Growth Rate for Cc1nc2c(cc1F)c(-c1nnc3c(n1)NC(=O)C3(C)C)nn2Cc1cccc(F)c1F meets or exceeds 0.9.
1 (yes)

Please indicate if the recorded Growth Rate for CC(C)(C)c1cc(NC(=O)c2csc(Nc3ccc(Cl)cc3)n2)no1 meets or exceeds 0.9.
0 (no)

Please indicate if the recorded Growth Rate for C=CC(=O)N1CCC[C@@H](n2nc(C(=O)Nc3ccc(CC(=O)N(C)C)c(C)c3C)c3c(N)ncnc32)C1 meets or exceeds 0.9.
0 (no)

Please indicate if the recorded Growth Rate for CC(=O)NCC(=O)N1[C@@H]2CC[C@H]1c1ccc(Nc3ncc(C(F)(F)F)c(NC4CCC4)n3)cc12 [PF-03814735] meets or exceeds 0.9.
0 (no)

Please indicate if the recorded Growth Rate for CC1(C)C(=O)N([C@H]2CCc3c(O)cccc32)c2nc(Nc3cccc(CN4CCCC4)c3)ncc21 meets or exceeds 0.9.
0 (no)

Please indicate if the recorded Growth Rate for Cc1nnc2n1-c1sc(CCC(=O)N3CCOCC3)cc1C(c1ccccc1Cl)=NC2 [APAFANT] meets or exceeds 0.9.
0 (no)

Please indicate if the recorded Growth Rate for Cc1ccc(NS(=O)(=O)c2ccc3c(c2)C2C=CCC2C(c2ccc(C(=O)O)cc2)N3)cc1C (configuration not stated) meets or exceeds 0.9.
0 (no)

Please indicate if the recorded Growth Rate for COc1ccc(COc2ccc(Cc3cnc(N)nc3N)cc2OC)cc1 [GW632580X] meets or exceeds 0.9.
0 (no)

Please indicate if the recorded Growth Rate for CCCN1CCC(C#N)(NC(=O)[C@H](CC(C)(C)C)NC(=O)N2CCOCC2)CC1 meets or exceeds 0.9.
0 (no)

Please indicate if the recorded Growth Rate for COc1ccc(CC[C@@H](OC(=O)[C@@H]2CCCCN2C(=O)[C@H](c2cc(OC)c(OC)c(OC)c2)C2CCCCC2)c2cccc(OCCN3CCOCC3)c2)cc1OC meets or exceeds 0.9.
1 (yes)

Please indicate if the recorded Growth Rate for CN(C)Cc1cccc(NC(=C2C(=O)Nc3cc(C(=O)N(C)C)ccc32)c2ccccc2)c1 meets or exceeds 0.9.
0 (no)

Please indicate if the recorded Growth Rate for CN1C(=O)Cc2ccc(-c3ccc(C[C@@H](C#N)NC(=O)[C@@H]4N[C@H]5CC[C@@H]4C5)c(F)c3)cc21 meets or exceeds 0.9.
0 (no)
